Molecular target: recombinant human HDAC1 (Homo sapiens (Human), UniProt Q13547)
Sequence (Q13547 whole entry): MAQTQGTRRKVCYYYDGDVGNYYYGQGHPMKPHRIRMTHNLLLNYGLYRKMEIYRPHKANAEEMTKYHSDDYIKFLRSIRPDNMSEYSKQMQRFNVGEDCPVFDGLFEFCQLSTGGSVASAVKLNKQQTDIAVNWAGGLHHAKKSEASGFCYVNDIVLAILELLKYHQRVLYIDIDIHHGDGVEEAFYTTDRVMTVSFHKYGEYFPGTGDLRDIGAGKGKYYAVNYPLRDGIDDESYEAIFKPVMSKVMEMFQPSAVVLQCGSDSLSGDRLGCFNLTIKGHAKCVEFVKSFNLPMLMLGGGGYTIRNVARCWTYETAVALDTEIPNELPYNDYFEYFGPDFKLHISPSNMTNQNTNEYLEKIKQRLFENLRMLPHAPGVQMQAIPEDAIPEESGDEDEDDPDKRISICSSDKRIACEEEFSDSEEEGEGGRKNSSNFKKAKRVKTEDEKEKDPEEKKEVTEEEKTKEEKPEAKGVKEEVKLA
Conditions: read-out: HDAC1 IC50
pIC50: −log10 of the molar value.
Please note: 1 (yes) applies when pIC50 is 6 or greater, and 0 (no) applies otherwise.

Problem: Reported pIC50 reaches at least 6 for C=Cc1sc(-c2nccs2)nc1C(=O)NCCCNC(=O)CS [CFH367-S] ?
Result: 0 (no)

Problem: Subsequent entry: Cc1nc(-c2nc(C(=O)NCCCCC(=O)NO)c(C3CC3)s2)sc1C [CFH395-M]
Result: 1 (yes)

Problem: Subsequent entry: Cc1nc(-c2nc(C(=O)NCCCCC(=O)NO)c(CC(C)C)s2)cs1 [CFH397]
Result: 1 (yes)

Problem: Subsequent entry: CC(C)Cc1sc(-c2nccs2)nc1C(=O)NCCCCCCC(=O)Nc1ccccc1N [CFH522]
Result: 0 (no)

Problem: Subsequent entry: CC(C)Cc1sc(-c2nccs2)nc1C(=O)NCCCCCCC(=O)NO [CFH410]
Result: 1 (yes)

Problem: Subsequent entry: CC(C)Cc1sc(-c2nccs2)nc1C(=O)NCCCCC(=O)Nc1ccccc1N [CFH494]
Result: 0 (no)

Problem: Subsequent entry: O=C(CCCCNC(=O)c1nc(-c2ncc(-c3ccccc3)s2)sc1C1CC1)NO [CFH443-5]
Result: 1 (yes)

----------
Molecular target: recombinant human HDAC1 (Homo sapiens (Human))
Details: read-out: HDAC1 IC50
Exercise: for every item that follows, state its recorded pIC50.
Would you please state pIC50, meaning minus log10 of the concentration in mol/L, as a bare number?

Problem: // query pIC50 value for entry `CC(C)/C=C/c1sc(-c2nccs2)nc1C(=O)NCCCNC(=O)CS`
Result: 6.02

Problem: Subsequent entry: `CC(C)Cc1sc(-c2nccs2)nc1C(=O)Nc1cccc(/C=C/C(=O)NO)c1`
Result: 6.18

Problem: Subsequent entry: `CC(C)Cc1sc(-c2nccs2)nc1C(=O)NCCCCCC(=O)Nc1ccccc1N`
Result: 6.01

Problem: Subsequent entry: `Cc1cnc(-c2nc(C(=O)NCCCCC(=O)NO)c(CC(C)C)s2)s1`
Result: 6.04
